// provenance: paper PMC11726670

Catalogue of PAMPA, mean (LogPe, cm/s) values
- test-description: in vitro
- conditions-used: 16 h, 10 μM

| structure-notation | measured-metric | measured |
| --- | --- | --- |
| Cc1ncsc1-c1ccc(CNC(=O)[C@@H]2C[C@@H](O)CN2C(=O)[C@@H](NC(=O)COCc2cn(CCOc3cnc4c(C5CCN(C(=O)c6ccc(OC(F)(F)F)cc6)CC5)ncnc4c3)nn2)C(C)(C)C)cc1 | PAMPA, mean (LogPe, cm/s) | <-7,94 cm/s |

Can you look up the measured PAMPA, mean (LogPe, cm/s) of Cc1ncsc1-c1ccc(CNC(=O)[C@@H]2C[C@@H](O)CN2C(=O)[C@@H](NC(=O)CCOCCNC(=O)COc2cnc3c(C4CCN(C(=O)c5ccc(OC(F)(F)F)cc5)CC4)ncnc3c2)C(C)(C)C)cc1 for me? -6,21 cm/s

Can you look up the measured PAMPA, mean (LogPe, cm/s) of Cc1ncsc1-c1ccc(CNC(=O)[C@@H]2C[C@@H](O)CN2C(=O)[C@@H](NC(=O)CN2CCC(CCCOc3cnc4c(C5CCN(C(=O)c6ccc(OC(F)(F)F)cc6)CC5)ncnc4c3)CC2)C(C)(C)C)cc1 for me? -6,9 cm/s

Can you look up the measured PAMPA, mean (LogPe, cm/s) of Cc1ncsc1-c1ccc(CNC(=O)[C@@H]2C[C@@H](O)CN2C(=O)[C@@H](NC(=O)CN(C)CCCCCCOc2cnc3c(C4CCN(C(=O)c5ccc(OC(F)(F)F)cc5)CC4)ncnc3c2)C(C)(C)C)cc1 for me? -6,67 cm/s

* * *

- test-description: chromatographic Log D at pH 7.5
- Type: physicochemical
- conditions-used: pH 7.5, chromatographic; supplement; read-out: LogD, pH 7.50
Catalogue of chromatographic logD values
Output: the number by itself.

Check out these entries, answers already filled in.
| molecule | measured |
| --- | --- |
| Cc1ncsc1-c1ccc(CNC(=O)[C@@H]2C[C@@H](O)CN2C(=O)[C@@H](NC(=O)CCOCCNC(=O)COc2cnc3c(C4CCN(C(=O)c5ccc(OC(F)(F)F)cc5)CC4)ncnc3c2)C(C)(C)C)cc1 [PROTAC 3] | 2.66 |
| Cc1ncsc1-c1ccc(CNC(=O)[C@@H]2C[C@@H](O)CN2C(=O)[C@@H](NC(=O)Cc2ccc(OCCOc3cnc4c(C5CCN(C(=O)c6ccc(OC(F)(F)F)cc6)CC5)ncnc4c3)cc2)C(C)(C)C)cc1 [PROTAC 5] | 3.25 |

Can you look up the measured chromatographic logD of Cc1ncsc1-c1ccc(CNC(=O)[C@@H]2C[C@@H](O)CN2C(=O)[C@@H](NC(=O)Cc2ccc(OCCOc3cnc4c(C5CCN(C(=O)c6ccc(OC(F)(F)F)cc6)CC5)ncnc4c3)cn2)C(C)(C)C)cc1 [PROTAC 6] for me? 2.97

Can you look up the measured chromatographic logD of Cc1ncsc1-c1ccc(CNC(=O)[C@@H]2C[C@@H](O)CN2C(=O)[C@@H](NC(=O)COCCOCCNC(=O)COc2cnc3c(C4CCN(C(=O)c5ccc(OC(F)(F)F)cc5)CC4)ncnc3c2)C(C)(C)C)cc1 [PROTAC 9] for me? 2.68

Can you look up the measured chromatographic logD of Cc1ncsc1-c1ccc(CNC(=O)[C@@H]2C[C@@H](O)CN2C(=O)[C@@H](NC(=O)CCOCCOCCOc2cnc3c(C4CCN(C(=O)c5ccc(OC(F)(F)F)cc5)CC4)ncnc3c2)C(C)(C)C)cc1 [PROTAC 2] for me? 2.89
